Recorded kcat for the following proteins
Substrate: NC(=O)C1=CN([C@@H]2O[C@H](COP(=O)(O)OP(=O)(O)OC[C@H]3O[C@@H](n4cnc5c(N)ncnc54)[C@H](OP(=O)(O)O)[C@@H]3O)[C@@H](O)[C@H]2O)C=CC1
Test: Nash assay of formaldehyde, fluorescence; coupled to EcAckA
Format: biochemical, Denitrovibrio acetiphilus
Details: formyl phosphate made in situ by 10 µM EcAckA from 500 mM ammonium formate and 5 mM ATP, 10 mM MgCl2, MOPS-KOH pH 7.0, 30 °C, varied: cofactor
# value in s⁻¹; strip the unit string

Solved cases below.
| Protein | Number |
| --- | --- |
| DaArgC (Denitrovibrio acetiphilus DSM 12809; G182V/L233I/S178V) (protein, dimer) MKVSVIGATGYTGYELVKILANHPEFEIAALVSETYADKMFSDVYPRLRSICDVVITGRDYDAVAEISDAVFLCLPHAAAQDAAAFFYEKGLKVVDFSADFRLKDKKLYEATYKVDHTYPDLLRKAVYGLPEIFEVDIKKAELVANPGCYPTSVITPLYPLLKAGLISPEGIIADSKVGVTVAGRKADIAYSFCECNEDFRPYAIFSHRHNPEINEVLKETGKETNVLFTPHIIPASKGIESTIYTKTTAGLAEISACLKDFYRERRCVRIYDNGHIPSTADVTDTNFIDIGLFVKGERLIIVSCIDNLIKGSSGMAVQNMNLMCGFDDTLGIL | 0.23 |
| Denitrovibrio acetiphilus N-acetyl-γ-glutamyl phosphate reductase (DaArgC), wild type (enzyme, N-acetyl-γ-glutamyl phosphate reductase (ArgC) of Denitrovibrio acetiphilus; also called WT DaArgC; Denitrovibrio acetiphilus N-acetyl-γ-glutamyl phosphate dehydrogenase; source: E. coli BL21 (DE3), purified (Ni-Sepharose HisTrap FF, Superdex 200 SEC)) MKVSVIGATGYTGYELVKILANHPEFEIAALVSETYADKMFSDVYPRLRSICDVVITGRDYDAVAEISDAVFLCLPHAAAQDAAAFFYEKGLKVVDFSADFRLKDKKLYEATYKVDHTYPDLLRKAVYGLPEIFEVDIKKAELVANPGCYPTSVITPLYPLLKAGLISPEGIIADSKSGVTGAGRKADIAYSFCECNEDFRPYAIFSHRHNPEINEVLKETGKETNVLFTPHLIPASKGIESTIYTKTTAGLAEISACLKDFYRERRCVRIYDNGHIPSTADVTDTNFIDIGLFVKGERLIIVSCIDNLIKGSSGMAVQNMNLMCGFDDTLGIL | 0.66 |
| DaArgC (Denitrovibrio acetiphilus DSM 12809; G182V/S178V) (protein, dimer) MKVSVIGATGYTGYELVKILANHPEFEIAALVSETYADKMFSDVYPRLRSICDVVITGRDYDAVAEISDAVFLCLPHAAAQDAAAFFYEKGLKVVDFSADFRLKDKKLYEATYKVDHTYPDLLRKAVYGLPEIFEVDIKKAELVANPGCYPTSVITPLYPLLKAGLISPEGIIADSKVGVTVAGRKADIAYSFCECNEDFRPYAIFSHRHNPEINEVLKETGKETNVLFTPHLIPASKGIESTIYTKTTAGLAEISACLKDFYRERRCVRIYDNGHIPSTADVTDTNFIDIGLFVKGERLIIVSCIDNLIKGSSGMAVQNMNLMCGFDDTLGIL | 0.26 |

Moving on to another protein below.
QUERY: Answer with the recorded kcat for the protein listed here: DaArgC (Denitrovibrio acetiphilus DSM 12809; G182V) (protein, dimer) MKVSVIGATGYTGYELVKILANHPEFEIAALVSETYADKMFSDVYPRLRSICDVVITGRDYDAVAEISDAVFLCLPHAAAQDAAAFFYEKGLKVVDFSADFRLKDKKLYEATYKVDHTYPDLLRKAVYGLPEIFEVDIKKAELVANPGCYPTSVITPLYPLLKAGLISPEGIIADSKSGVTVAGRKADIAYSFCECNEDFRPYAIFSHRHNPEINEVLKETGKETNVLFTPHLIPASKGIESTIYTKTTAGLAEISACLKDFYRERRCVRIYDNGHIPSTADVTDTNFIDIGLFVKGERLIIVSCIDNLIKGSSGMAVQNMNLMCGFDDTLGIL
RESULT: 0.14
